test system: Enterococcus faecalis; assay: Antibacterial activity against Enterococcus faecalis ATCC 29212 by broth microdilution method; type: functional
Binary label based on MIC with cut-off 20 µM: below gives condition met, not below gives condition not met.

query smiles	assigned category
CC(C)=CCC/C(C)=C/Cc1c(O)cc(/C=C\c2ccccc2)cc1O	condition not met
CC(C)=CCC/C(C)=C/Cc1c(O)cc(/C=C/c2ccccc2)cc1O	condition met
CC(C)=CCC/C(C)=C/Cc1c(O)cc(/C=C\c2ccccc2)c(C(=O)O)c1O	condition not met
COc1cc(CCc2ccccc2)c(C(=O)O)c(O)c1C/C=C(/C)CCC=C(C)C	condition met
CC(C)=CCC/C(C)=C\Cc1c(O)cc(CCc2ccccc2)c(C(=O)O)c1O	condition not met
COc1ccc(-c2coc3c(C/C=C(\C)CCC=C(C)C)c(O)cc(O)c3c2=O)cc1O	condition not met
CC(C)=CCC/C(C)=C/Cc1c(O)ccc(C(=O)/C=C/c2ccc(O)cc2)c1O	condition met
CC(C)=CCC/C(C)=C/Cc1c(O)cc(CCc2ccccc2)cc1O	condition not met
CC(C)=CCC/C(C)=C/Cc1c(O)cc(O)c2c1O[C@H](c1ccccc1)[C@H](O)C2=O	condition not met
COc1c(N2C[C@@H]3CCCN[C@@H]3C2)c(F)cc2c(=O)c(C(=O)O)cn(C3CC3)c12	condition met
COc1cc(CCc2ccccc2)c(C(=O)O)c(O)c1CC=C(C)C	condition not met
COc1cc(/C=C/c2ccccc2)cc(OC)c1C/C=C(\C)CCC=C(C)C	condition not met
COc1ccc(-c2coc3cc(O)c(C/C=C(\C)CCC=C(C)C)c(O)c3c2=O)cc1O	condition not met
CC(C)=CCC/C(C)=C/Cc1c(O)cc(/C=C/c2ccccc2)c(C(=O)O)c1O	condition not met

----------
test system: Staphylococcus aureus; test: Antibacterial activity against methicilin-resistant Staphylococcus aureus ATCC 700699 by broth microdilution method; assay type: functional; details: Mu50

molecule	MIC [µM]
COc1ccc(-c2coc3cc(O)c(C/C=C(\C)CCC=C(C)C)c(O)c3c2=O)cc1O	100
COc1cc(CCc2ccccc2)c(C(=O)O)c(O)c1C/C=C(/C)CCC=C(C)C	12.5
CC(C)=CCC/C(C)=C/Cc1c(O)cc(/C=C\c2ccccc2)cc1O	100
COc1ccc(-c2coc3c(C/C=C(\C)CCC=C(C)C)c(O)cc(O)c3c2=O)cc1O	100
CC(C)=CCC/C(C)=C/Cc1c(O)cc(CCc2ccccc2)cc1O	6.3
CC(C)=CCC/C(C)=C/Cc1c(O)cc(O)c2c1O[C@H](c1ccccc1)[C@H](O)C2=O	100
CC(C)=CCC/C(C)=C\Cc1c(O)cc(CCc2ccccc2)c(C(=O)O)c1O	100
CC(C)=CCC/C(C)=C/Cc1c(O)cc(/C=C\c2ccccc2)c(C(=O)O)c1O	100
COc1c(N2C[C@@H]3CCCN[C@@H]3C2)c(F)cc2c(=O)c(C(=O)O)cn(C3CC3)c12 [MOXIFLOXACIN]	3.8

----------
tested on: L5178Y; test: Cytotoxicity against mouse L5178Y cells by MTT assay; type: functional, cell-based
pIC50: −log10 of the molar value.
Form field: pIC50 (one value per entry).

compound	pIC50
COc1cc2c(cc1OC)[C@@H]1C(=O)c3ccc4c(c3O[C@@H]1CO2)C=CC(C)(C)O4	6.70
C/C=C1\NC(=O)[C@H](Cc2ccccc2)NC(=O)[C@@H](C(C)C)NC(=O)[C@@H](C(C)CC)NC(=O)[C@H](NC(=O)[C@H](NC(=O)[C@H](CCCN)NC(=O)[C@@H]2CCCN2C(=O)[C@H](NC(=O)[C@@H](NC(=O)[C@@H](NC(=O)[C@H](NC(=O)CCCC(C)C)C(C)C)C(C)O)C(C)C)C(C)C)C(C)CC)C(C)OC(=O)[C@H](C(C)C)NC1=O (some centres not stated)	5.37

----------
Recorded MIC, one value per entry.
tested on: Staphylococcus aureus; assay: Antibacterial activity against methicilin-resistant Staphylococcus aureus ATCC 700699 by broth microdilution method; assay type: functional; conditions: Mu50
property name: MIC (µM)

compound	property name	value prefix	recorded number
COc1cc(CCc2ccccc2)c(C(=O)O)c(O)c1CC=C(C)C [AMORFRUTIN A]	MIC	=	6.3
CC(C)=CCC/C(C)=C/Cc1c(O)cc(/C=C/c2ccccc2)c(C(=O)O)c1O	MIC	=	12.5
COc1cc(/C=C/c2ccccc2)cc(OC)c1C/C=C(\C)CCC=C(C)C	MIC	>	100
CC(C)=CCC/C(C)=C/Cc1c(O)cc(/C=C/c2ccccc2)cc1O [AMORPHASTILBOL]	MIC	=	3.1
CC(C)=CCC/C(C)=C/Cc1c(O)ccc(C(=O)/C=C/c2ccc(O)cc2)c1O [XANTHOANGELOL]	MIC	=	3.1

----------
system: L5178Y; experiment: Cytotoxicity against mouse L5178Y cells by MTT assay; format: functional, cell-based
Values of IC50 strictly less than 1000 nM map to condition met, and values of at least 1000 nM map to condition not met.

compound	assigned category
C=C(C)[C@H]1Cc2c(ccc3c2O[C@@H]2COc4cc(OC)c(OC)cc4[C@@H]2C3=O)O1	condition met
COC1=CC(=O)[C@]2(C=C1OC)OC[C@H]1Oc3c4c(cc(O)c3C(=O)[C@H]12)OC(C)(C)C=C4	condition not met
COc1cc2c(cc1OC)[C@@H]1C(=O)c3ccc(O)c(CC=C(C)C)c3O[C@@H]1CO2	condition met
COc1cc2c(cc1OC)-c1c(oc3c4c(ccc3c1=O)OC(C)(C)C=C4)CO2 [DEHYDRODEGUELIN]	condition not met
COc1cc2c(cc1OC)[C@@H]1C(=O)c3ccc4c(c3O[C@@H]1CO2)C[C@H](C(C)(C)O)O4	condition met
COc1cc2c(cc1OC)[C@@H]1C(=O)c3ccc4c(c3O[C@@H]1CO2)C[C@H](C(C)(C)O[C@@H]1O[C@H](CO)[C@@H](O)[C@H](O)[C@H]1O)O4	condition not met

----------
test system: Enterococcus faecium; assay: Antibacterial activity against Enterococcus faecium ATCC 700221 by broth microdilution method; format: functional
Each record is given Met if its reported MIC is strictly below 20 µM. Records at or above 20 µM are given Not met.

query smiles	assigned category
COc1ccc(-c2coc3c(C/C=C(\C)CCC=C(C)C)c(O)cc(O)c3c2=O)cc1O	Not met
CC(C)=CCC/C(C)=C/Cc1c(O)cc(/C=C\c2ccccc2)c(C(=O)O)c1O	Not met
CC(C)=CCC/C(C)=C/Cc1c(O)ccc(C(=O)/C=C/c2ccc(O)cc2)c1O	Met
CC(C)=CCC/C(C)=C/Cc1c(O)cc(O)c2c1O[C@H](c1ccccc1)[C@H](O)C2=O	Not met
CC(C)=CCC/C(C)=C/Cc1c(O)cc(/C=C/c2ccccc2)cc1O	Met
COc1cc(/C=C/c2ccccc2)cc(OC)c1C/C=C(\C)CCC=C(C)C	Not met
COc1cc(CCc2ccccc2)c(C(=O)O)c(O)c1C/C=C(/C)CCC=C(C)C	Met
CC(C)=CCC/C(C)=C/Cc1c(O)cc(/C=C/c2ccccc2)c(C(=O)O)c1O	Not met
CC(C)=CCC/C(C)=C\Cc1c(O)cc(CCc2ccccc2)c(C(=O)O)c1O	Not met
CC(C)=CCC/C(C)=C/Cc1c(O)cc(CCc2ccccc2)cc1O	Met
COc1ccc(-c2coc3cc(O)c(C/C=C(\C)CCC=C(C)C)c(O)c3c2=O)cc1O	Met
COc1c(N2C[C@@H]3CCCN[C@@H]3C2)c(F)cc2c(=O)c(C(=O)O)cn(C3CC3)c12	Met
CC(C)=CCC/C(C)=C/Cc1c(O)cc(/C=C\c2ccccc2)cc1O	Not met
COc1cc(CCc2ccccc2)c(C(=O)O)c(O)c1CC=C(C)C	Not met

// provenance: ChEMBL document CHEMBL4004808
